Target: human B-Raf (Homo sapiens)
Construct: Flag; GST; made in house; host or cells: Sf9 insect cells (B-Raf); E. coli (MEK1-GST)
Assay: B-Raf Kinase to MEK1 ELISA
Type: biochemical
measured-metric: pIC50
// returns pIC50 (minus log10 of molar concentration), number only

Look over these answered cases.
- structure-smiles-string: "CCN(CC)CCNC(=O)c1cnn2c(-c3cccc(NC(=O)Nc4ccc(Cl)c(C(F)(F)F)c4)c3)ccnc12"
  target-or-system: "human B-Raf (Homo sapiens)"
  observed: 6.85
- structure-smiles-string: "O=C(Nc1cccc(-c2ccnc3c(C#CCCCN4CCOCC4)cnn23)c1)c1cccc(C(F)(F)F)c1"
  target-or-system: "human B-Raf (Homo sapiens)"
  observed: 6.26
- structure-smiles-string: "O=C(Nc1cccc(-c2ccnc3c(-c4ccc(CN5CCCC5)cc4)cnn23)c1)c1cccc(C(F)(F)F)c1"
  target-or-system: "human B-Raf (Homo sapiens)"
  observed: 7.69

Now turn to the next compound.
Problem: Tell us which pIC50 value is on record for O=C(Nc1cccc(-c2ccnc3cc(-c4ccnc(NCCN5CCC(O)CC5)c4)nn23)c1)c1cccc(C(F)(F)F)c1
Solution: 7.18

====

Biological target: human B-Raf (Homo sapiens, UniProt P15056)
Construct: Flag; GST; made in house; host or cells: Sf9 insect cells (B-Raf); E. coli (MEK1-GST)
Sequence (P15056 whole entry): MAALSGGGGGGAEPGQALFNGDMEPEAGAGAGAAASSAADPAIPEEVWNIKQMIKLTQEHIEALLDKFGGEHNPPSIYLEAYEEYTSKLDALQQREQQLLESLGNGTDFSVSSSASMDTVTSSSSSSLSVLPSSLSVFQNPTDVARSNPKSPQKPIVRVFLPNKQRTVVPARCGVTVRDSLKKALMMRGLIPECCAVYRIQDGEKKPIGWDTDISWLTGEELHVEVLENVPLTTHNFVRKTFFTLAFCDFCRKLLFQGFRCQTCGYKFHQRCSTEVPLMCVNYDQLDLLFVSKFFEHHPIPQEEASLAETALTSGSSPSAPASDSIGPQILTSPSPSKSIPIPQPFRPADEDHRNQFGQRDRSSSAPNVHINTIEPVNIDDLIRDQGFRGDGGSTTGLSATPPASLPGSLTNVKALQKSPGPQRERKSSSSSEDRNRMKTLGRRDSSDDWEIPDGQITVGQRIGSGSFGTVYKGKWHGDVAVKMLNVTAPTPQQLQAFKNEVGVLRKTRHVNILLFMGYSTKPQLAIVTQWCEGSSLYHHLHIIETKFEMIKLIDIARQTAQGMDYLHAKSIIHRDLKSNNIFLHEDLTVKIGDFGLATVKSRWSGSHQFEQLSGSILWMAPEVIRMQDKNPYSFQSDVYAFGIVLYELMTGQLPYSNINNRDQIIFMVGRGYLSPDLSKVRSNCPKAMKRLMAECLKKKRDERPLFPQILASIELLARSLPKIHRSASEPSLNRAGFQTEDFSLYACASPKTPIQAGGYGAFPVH
Assay: B-Raf Kinase to MEK1 ELISA
Assay type: biochemical
Details: read-out: % Inhib./10 uM
Please mark Yes if the recorded inhibition at 10 µM is equal to or greater than 90%, and No if it falls below.

Solved cases (2 shown):
- structure-smiles-string: "O=C(Nc1cccc(-c2ccnc3cc(-c4ccnc(NCCCn5ccnc5)c4)nn23)c1)c1cccc(C(F)(F)F)c1"
  target-or-system: "human B-Raf (Homo sapiens, UniProt P15056)"
  discrete-label: "Yes"
- structure-smiles-string: "CCOC(=O)c1cnn2c(-c3cc(NC(=O)c4cccc(C(F)(F)F)c4)ccc3F)ccnc12"
  target-or-system: "human B-Raf (Homo sapiens, UniProt P15056)"
  discrete-label: "Yes"

Problem: Is reported inhibition at 10 µM greater than or equal to 90% here: CCOC(=O)c1cnn2c(-c3cccc(NC(=O)Nc4cc(C)on4)c3)ccnc12
Solution: No

Problem: // inclusive: inhibition at 10 µM at least 90%? input: O=C(Nc1cccc(-c2ccnc3c(C(=O)OCC(F)(F)F)cnn23)c1)c1cccc(C(F)(F)F)c1
Solution: No

Problem: Would you say N#Cc1ccccc1-c1cnn2c(-c3cccc(NC(=O)c4cccc(C(F)(F)F)c4)c3)ccnc12 shows inhibition at 10 µM at minimum 90%?
Solution: No

Problem: # check: inhibition at 10 µM of O=C(Nc1cccc(-c2ccnc3c(-c4ccc(F)nc4)cnn23)c1)c1cccc(C(F)(F)F)c1 is greater than or equal to 90%
Solution: No

Problem: Identify whether the reported inhibition at 10 µM of the following molecule is 90% or greater: CN(C)CCCC(=O)Nc1ccc(-c2cnn3c(-c4cccc(NC(=O)c5cccc(C(F)(F)F)c5)c4)ccnc23)cc1
Solution: Yes

====

Target: human B-Raf (Homo sapiens)
Construct: Flag; GST; made in house; host or cells: Sf9 insect cells (B-Raf); E. coli (MEK1-GST)
Experiment: B-Raf Kinase to MEK1 ELISA
Assay type: biochemical
Conditions: median; cpd concentrations from 10 μM to 30 nM in half log dilutions; read-out: Median IC50
pIC50: −log10 of the molar value.
measured-metric: pIC50

Examples with answers:
- structure-smiles-string: "CN1CC=C(c2cnn3c(-c4cccc(NC(=O)c5cccc(C(F)(F)F)c5)c4)ccnc23)CC1"
  target-or-system: "human B-Raf (Homo sapiens)"
  observed: 6.07
- structure-smiles-string: "Cn1c(C(=O)Nc2cccc(-c3ccnc4cc(-c5ccncc5)nn34)c2)cc2ccccc21"
  target-or-system: "human B-Raf (Homo sapiens)"
  observed: "< 5.00"
- structure-smiles-string: "CCOC(=O)c1cnn2c(-c3cccc(NC(=O)c4cc5ccccc5s4)c3)ccnc12"
  target-or-system: "human B-Raf (Homo sapiens)"
  observed: "< 4.70"
- structure-smiles-string: "O=C(Nc1cccc(-c2ccnc3cc(-c4ccco4)nn23)c1)c1cccc(C(F)(F)F)c1"
  target-or-system: "human B-Raf (Homo sapiens)"
  observed: "< 5.00"

Problem: Give reported pIC50 value for O=C(Nc1cccc(-c2ccnc3cc(-c4ccc(F)cc4)nn23)c1)c1cccc(C(F)(F)F)c1
Solution: < 5.00

Problem: Output pIC50 of CCOC(=O)c1cnn2c(-c3cccc(NC(=O)Nc4ccc(Br)cc4)c3)ccnc12
Solution: < 5.00

Problem: Answer with reported pIC50 of CCOC(=O)c1cnn2c(-c3cccc(NC(=O)c4ccc(C(F)(F)F)cc4)c3)ccnc12
Solution: < 5.00

Problem: Return reported pIC50. Input compound: CCOC(=O)c1cnn2c(-c3cccc(NC(=O)c4ccc(Cl)c(Cl)c4)c3)ccnc12
Solution: < 5.00

====

Target: human B-Raf (Homo sapiens)
Construct: Flag; GST; made in house; host or cells: Sf9 insect cells (B-Raf); E. coli (MEK1-GST)
Test: B-Raf Kinase to MEK1 ELISA
Type: biochemical
Conditions: median; cpd concentrations from 10 μM to 30 nM in half log dilutions; read-out: Median IC50
measured-metric: IC50 (µM)
Use µM as the unit, but write only the number.

Some molecules with known IC50 results, for comparison:
- structure-smiles-string: "CCOC(=O)c1cnn2c(-c3cccc(NC(=O)Nc4ccc5ccccc5c4)c3)ccnc12"
  IC50 [µM]: 2.3
- structure-smiles-string: "CC(C)(C)OC(=O)n1cc(-c2cnn3c(-c4cccc(NC(=O)c5cccc(C(F)(F)F)c5)c4)ccnc23)cn1"
  IC50 [µM]: 2.06
- structure-smiles-string: "CCOC(=O)c1cnn2c(-c3cccc(NC(=O)Nc4ccc(C)c(C(F)(F)F)c4)c3)ccnc12"
  IC50 [µM]: 0.37

# evaluate next
Problem: Please report IC50 for the following molecule: O=C(Nc1cccc(-c2ccnc3c(-c4ccc(CN5CCCC5)o4)cnn23)c1)c1cccc(C(F)(F)F)c1
Solution: 0.541

====

Target: human B-Raf (Homo sapiens)
Construct: Flag; GST; made in house; host or cells: Sf9 insect cells (B-Raf); E. coli (MEK1-GST)
Assay: B-Raf Kinase to MEK1 ELISA
Format: biochemical
Conditions: read-out: % Inhib./10 uM
Reported inhibition at 10 µM by item:
State just the number; it will be interpreted in %.

Problem: Assign inhibition at 10 µM to the following record: O=C(Nc1cccc(-c2ccnc3c(C(=O)NCCCN4CCOCC4)cnn23)c1)c1cccc(C(F)(F)F)c1
Solution: 55

Problem: Specify reported inhibition at 10 µM for the compound shown: CCOC(=O)c1cnn2c(-c3cccc(NC(=O)Cc4ccc(OC)c(C)c4)c3)ccnc12
Solution: 0

Problem: Supply inhibition at 10 µM value. Item: O=C(Nc1cccc(-c2ccnc3c(C(=O)Nc4cccnc4)cnn23)c1)c1cccc(C(F)(F)F)c1
Solution: 35

Problem: State its inhibition at 10 µM for this compound: CCOC(=O)c1cnn2c(-c3cccc(NC(=O)Nc4ccc(Br)c(Cl)c4)c3)ccnc12
Solution: 71

====

Target: human B-Raf (Homo sapiens)
Construct: Flag; GST; made in house; host or cells: Sf9 insect cells (B-Raf); E. coli (MEK1-GST)
Assay: B-Raf Kinase to MEK1 ELISA
Type: biochemical
Conditions: read-out: % Inhib./10 uM
Procedure: TITLE: B-Raf Kinase to MEK1 ELISA PURPOSE: To discover B-Raf Kinase inhibitors that can inhibit growth of tumor cells which contain oncogenic forms of Receptor Tyrosine Kinases or K-Ras, or B-Raf kinase. […] B-Raf-1 is used to phosphorylate GST-MEK1. MEK1 phosphorylation is measured by a phospho-specific antibody (from Cell Signaling Technology, cat. #9121) that detects phosphorylation of two serine residues at positions 217 and 221 on MEK1. […] 11. Read plates in Wallac Victor model Plate Reader. […]
measured-metric: inhibition at 10 µM (%)
# unit: % | format: bare number

- compound: "CCOC(=O)c1cnn2c(-c3cccc(NC(=O)Nc4cc(Cl)cc(Cl)c4)c3)ccnc12 [Example 17]"
  measured-metric: "inhibition at 10 µM"
  unit-descriptor: "%"
  observed: 30
- compound: "O=C(Nc1cccc(-c2ccnc3c(C(=O)NCCN4CCOCC4)cnn23)c1)c1cccc(C(F)(F)F)c1 [Example 52]"
  measured-metric: "inhibition at 10 µM"
  unit-descriptor: "%"
  observed: 60
- compound: "CCOC(=O)c1cnn2c(-c3cccc(NC(=O)Nc4ccc(N5CCOCC5)c(Cl)c4)c3)ccnc12 [Example 84]"
  measured-metric: "inhibition at 10 µM"
  unit-descriptor: "%"
  observed: 22
- compound: "O=C(O)c1cccc(-c2cnn3c(-c4cccc(NC(=O)c5cccc(C(F)(F)F)c5)c4)ccnc23)c1 [Example 314]"
  measured-metric: "inhibition at 10 µM"
  unit-descriptor: "%"
  observed: 82
- compound: "NC(=O)c1cnn2c(-c3cccc(NC(=O)c4cccc(C(F)(F)F)c4)c3)ccnc12 [Example 61]"
  measured-metric: "inhibition at 10 µM"
  unit-descriptor: "%"
  observed: 16

Problem: Give inhibition at 10 µM for the following compound: CN(C)c1ccc(-c2cnn3c(-c4cccc(NC(=O)c5cccc(C(F)(F)F)c5)c4)ccnc23)cc1 [Example 157]
Solution: 66

Problem: Input CCOC(=O)c1cnn2c(-c3cccc(NC(=O)c4cc(Cl)ccc4Br)c3)ccnc12 [Example 228] , output reported inhibition at 10 µM.
Solution: 7

Problem: Provide only the value of recorded inhibition at 10 µM for CN(C)c1cc2nccc(-c3cccc(NC(=O)c4cccc(C(F)(F)F)c4)c3)n2n1 [Example 187]
Solution: 31
